The measurements presented in this section are drawn from patent US20260297085A1.

# study_target: human JAK2 kinase domain (JH1) (Homo sapiens)
# Construct: recombinantly generated catalytic kinase (also known as JH1) domain of human JAK1, JAK2, JAK3 and TYK2
# Sequence (O60674 849-1124 limits assumed): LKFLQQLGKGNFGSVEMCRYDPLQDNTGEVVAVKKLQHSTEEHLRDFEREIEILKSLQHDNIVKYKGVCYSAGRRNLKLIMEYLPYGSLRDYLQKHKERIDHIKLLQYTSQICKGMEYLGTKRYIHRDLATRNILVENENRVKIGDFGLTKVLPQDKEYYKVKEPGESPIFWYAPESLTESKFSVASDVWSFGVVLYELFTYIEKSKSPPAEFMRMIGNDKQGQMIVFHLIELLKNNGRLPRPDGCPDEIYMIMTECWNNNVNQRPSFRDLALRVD
# method_description: JH1 biochemical assay for JAK2 (ADP-Glo kinase assay, recombinant JH1 catalytic domain, JAK3-974 peptide, 15 μM ATP)
# run_conditions: JAK2 JH1, ADP-Glo
Structures can show the parent of a compound that is named as a salt.
readout_type: IC50

Examples with answers:
compound: COc1ncc(-c2cn3nccc3c(N3C[C@@H](C)[C@@](C#N)(C4CC4)C3=O)n2)cc1C#N [Example 262, trifluoroacetate]
readout_value: > 10 µM

compound: C[C@@H]1CN(c2nc(-c3ccnc(C(F)(F)F)c3)cn3nccc23)C(=O)[C@]1(C#N)C1CC1 [Example 234, trifluoroacetate]
readout_value: 0.1 to 1 µM

compound: C[C@@H]1CN(c2nc(-c3cnn(C(F)F)c3)cc3ncsc23)C(=O)[C@]1(C#N)C1CC1
readout_value: < 0.1 µM

// field: IC50; key: C[C@@H]1CN(c2nc(-c3ccc4c(cnn4C)c3)cn3nccc23)C(=O)[C@]1(C#N)C1CC1 [Example 225, trifluoroacetate] ; value = 0.1 to 1 µM

// field: IC50; key: "COc1ccc(-c2cn3nccc3c(N3C[C@@H](C)[C@@](C#N)(C4CC4)C3=O)n2)cn1" ; value = 1 to 5 µM

// field: IC50; key: "C[C@@H]1CN(c2nn(-c3cnn(C)c3)c3cnccc23)C(=O)[C@]1(C#N)C1CC1" ; value = 1 to 5 µM

// field: IC50; key: "C[C@@H]1CN(c2nc(-c3cnn([C@H]4C[C@@](F)(C#N)C4)c3)cn3ncc(F)c23)C(=O)[C@]1(C#N)C1CC1" ; value = < 0.1 µM

====

Overview of recorded IC50 for various compounds
# study_target: human JAK3 kinase domain (JH1) (Homo sapiens, UniProt P52333)
# Construct: recombinantly generated catalytic kinase (also known as JH1) domain of human JAK1, JAK2, JAK3 and TYK2
# Sequence (P52333 822-1111 limits assumed): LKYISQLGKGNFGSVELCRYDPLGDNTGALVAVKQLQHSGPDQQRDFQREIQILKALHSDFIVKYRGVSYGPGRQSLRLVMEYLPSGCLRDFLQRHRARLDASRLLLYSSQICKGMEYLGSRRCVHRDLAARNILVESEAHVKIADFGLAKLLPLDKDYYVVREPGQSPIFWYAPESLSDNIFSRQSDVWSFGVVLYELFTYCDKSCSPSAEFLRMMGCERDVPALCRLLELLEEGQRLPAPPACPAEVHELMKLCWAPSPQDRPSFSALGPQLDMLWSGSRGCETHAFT
# method_description: JH1 biochemical assay for JAK3 (ADP-Glo kinase assay, recombinant JH1 catalytic domain, JAK3-974 peptide, 4 μM ATP)
# run_conditions: JH1 kinase domain, ADP-Glo
Where a name gives a salt, the structure may show the parent alone.

compound: CCn1cc(-c2cn3ncc(F)c3c(N3C[C@@H](C)[C@@](C#N)(C4CC4)C3=O)n2)cn1 [Example 188]
study_target: human JAK3 kinase domain (JH1) (Homo sapiens, UniProt P52333)
readout_value: < 100 nM
--
compound: Cc1cc(-c2cc3c(N4C[C@@H](C)[C@@](C#N)(C5CC5)C4=O)ccnn3c2)ccn1 [Example 77]
study_target: human JAK3 kinase domain (JH1) (Homo sapiens, UniProt P52333)
readout_value: 100 to 1000 nM
--
compound: Cc1c(-c2cn3nccc3c(N3C[C@@H](C)[C@@](C#N)(C4CC4)C3=O)n2)cnn1C [Example 199]
study_target: human JAK3 kinase domain (JH1) (Homo sapiens, UniProt P52333)
readout_value: 100 to 1000 nM
--
compound: C[C@@H]1CN(c2ccnn3cc(-c4cncc(Cl)c4)cc23)C(=O)[C@]1(C#N)C1CC1 [Example 87]
study_target: human JAK3 kinase domain (JH1) (Homo sapiens, UniProt P52333)
readout_value: > 10000 nM
--
compound: C[C@@H]1CN(c2ccnn3cc(-c4cnn(C)c4)cc23)C(=O)[C@]1(C#N)C1CC1 [Example 34]
study_target: human JAK3 kinase domain (JH1) (Homo sapiens, UniProt P52333)
readout_value: 100 to 1000 nM

// field: IC50; key: C[C@@H]1CN(c2ccnn3cc(-c4ccnc(C(F)(F)F)c4)cc23)C(=O)[C@]1(C#N)C1CC1 [Example 69] ; value = 100 to 1000 nM

// field: IC50; key: Cn1cc(-c2cc3c(N4CC[C@@](C)(C#N)C4=O)ccnn3c2)cn1 (single isomer, unassigned) [Example 38] ; value = 1000 to 5000 nM

// field: IC50; key: C[C@@H]1CN(c2ccnn3cc(-c4cnccc4C(F)(F)F)cc23)C(=O)[C@]1(C#N)C1CC1 [Example 179] ; value = > 10000 nM

// field: IC50; key: CC[C@]1(C#N)CCN(c2ccnn3cc(-c4cnn(C)c4)cc23)C1=O (single isomer, unassigned) [Example 42] ; value = 1000 to 5000 nM

// field: IC50; key: COc1ccc(-c2cc3c(N4C[C@@H](C)[C@@](C#N)(C5CC5)C4=O)ccnn3c2)nc1 [Example 145, trifluoroacetate] ; value = 100 to 1000 nM

// field: IC50; key: C[C@@H]1CN(c2nc(-c3ncccc3F)cn3nccc23)C(=O)[C@]1(C#N)C1CC1 [Example 212] ; value = 1000 to 5000 nM

// field: IC50; key: C[C@@H]1CN(c2nc(-c3cnn([C@H]4CCOC4)c3)cn3ncc(F)c23)C(=O)[C@]1(C#N)C1CC1 [Example 191] ; value = < 100 nM

// field: IC50; key: CC[C@H]1CN(c2ccnn3cc(-c4cnn(C)c4)cc23)C(=O)[C@@]1(C#N)C1CC1 [Example 25] ; value = > 10000 nM

// field: IC50; key: Cc1ncc(-c2cc3c(N4C[C@@H](C)[C@@](C#N)(C5CC5)C4=O)ccnn3c2)cn1 [Example 80] ; value = 1000 to 5000 nM

// field: IC50; key: C[C@H]1C[C@@](C#N)(C2CC2)C(=O)N1c1ccnn2cc(-c3cnn(C)c3)cc12 [Example 31] ; value = > 10000 nM
